Biological target: human ether-à-go-go-related gene (hERG) potassium channel (human)
Sequence (Q12809 whole entry, looked up): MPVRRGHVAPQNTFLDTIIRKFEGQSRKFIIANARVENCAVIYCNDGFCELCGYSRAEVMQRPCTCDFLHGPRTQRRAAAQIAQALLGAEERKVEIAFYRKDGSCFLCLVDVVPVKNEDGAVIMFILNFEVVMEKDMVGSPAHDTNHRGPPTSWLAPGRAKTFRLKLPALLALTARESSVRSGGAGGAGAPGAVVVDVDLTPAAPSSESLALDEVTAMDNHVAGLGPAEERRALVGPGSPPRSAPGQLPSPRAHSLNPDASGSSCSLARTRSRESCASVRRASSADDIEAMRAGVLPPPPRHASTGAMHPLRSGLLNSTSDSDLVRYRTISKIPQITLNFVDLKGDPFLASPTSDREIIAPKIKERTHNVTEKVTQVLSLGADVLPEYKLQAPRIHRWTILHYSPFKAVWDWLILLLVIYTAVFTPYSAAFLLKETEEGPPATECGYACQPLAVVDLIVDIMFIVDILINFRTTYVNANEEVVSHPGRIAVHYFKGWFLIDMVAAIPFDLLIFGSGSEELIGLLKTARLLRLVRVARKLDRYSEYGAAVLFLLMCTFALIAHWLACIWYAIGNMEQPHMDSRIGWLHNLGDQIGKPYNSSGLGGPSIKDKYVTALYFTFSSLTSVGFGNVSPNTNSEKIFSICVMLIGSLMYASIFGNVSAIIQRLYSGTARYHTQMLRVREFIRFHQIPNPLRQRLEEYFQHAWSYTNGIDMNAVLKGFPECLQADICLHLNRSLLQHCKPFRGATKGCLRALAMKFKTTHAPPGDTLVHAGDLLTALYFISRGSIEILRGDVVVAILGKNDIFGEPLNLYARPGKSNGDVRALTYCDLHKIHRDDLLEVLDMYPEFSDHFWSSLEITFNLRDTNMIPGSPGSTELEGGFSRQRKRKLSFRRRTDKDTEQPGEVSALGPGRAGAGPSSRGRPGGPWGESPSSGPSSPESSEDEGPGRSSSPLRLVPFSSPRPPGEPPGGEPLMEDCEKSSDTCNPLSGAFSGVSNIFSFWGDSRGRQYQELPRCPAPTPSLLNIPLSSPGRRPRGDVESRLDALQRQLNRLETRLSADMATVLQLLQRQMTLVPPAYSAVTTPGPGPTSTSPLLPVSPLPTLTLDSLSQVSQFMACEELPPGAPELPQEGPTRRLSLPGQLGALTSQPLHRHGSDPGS
Assay: primary screen, population patch clamp on CHO cells stably expressing hERG; higher = less effect of the substance
Description: Briefly, Chinese hamster ovary (CHO) cells stably expressing the hERG channel were dislodged from tissue culture flasks and dispensed into PPC plates. […] Small molecule effects on hERG current density were quantified by […].
Among all 310,000 compounds or so, about 2,200 (0.71%) showed an effect of 50% or more. The effect is printed as a negative number. The full list was thinned out, with strong results kept by preference.
parameter: hERG current change (%, negative = inhibition) at 1uM (%)
Write down the numeric answer in % and omit the unit.

Example molecules with recorded hERG current change (%, negative = inhibition) at 1uM:
molecule: O=C(c1csc2c1CCCC2)N1CCN(c2ccc(F)cc2)CC1
assay system: human ether-à-go-go-related gene (hERG) potassium channel (human)
reported measurement: 2.84

molecule: O=C(Nc1ccncc1)c1ccc(F)cc1
assay system: human ether-à-go-go-related gene (hERG) potassium channel (human)
reported measurement: 7.66

molecule: Cc1cc(OC(C)C(=O)NCc2cccnc2)c2c(C)cc(=O)oc2c1 (centres unmarked)
assay system: human ether-à-go-go-related gene (hERG) potassium channel (human)
reported measurement: 9.3

molecule: Cc1cccc(C(=O)Nc2cccc3cccnc23)c1
assay system: human ether-à-go-go-related gene (hERG) potassium channel (human)
reported measurement: 17.4

Prompt: Consider the molecule shown here: "CC(=O)Nc1ccc(S(=O)(=O)NCCC(=O)OCC(=O)c2ccccc2)cc1" What is its recorded hERG current change (%, negative = inhibition) at 1uM?
Completion: 6.41

These entries and their values trace back to paper PMC4336329.
